Sourced from the CombiSolv-Exp solvation set (Vermeire and Green 2021)

Test Method Notes: solvent given as SMILES
Test Parameters: in Nc1ccccc1
Readout Label: solvation free energy, 298 K (kcal/mol)
Give your result in kcal/mol as a bare value.

// below: answered compounds
INSERT INTO assay_data (smiles_representation, readout_label, val) VALUES
  ('CCCC(C)C', 'solvation free energy, 298 K', -2.28),
  ('CC(C)CC(C)C', 'solvation free energy, 298 K', -2.55),
  ('C1CCCCC1', 'solvation free energy, 298 K', -3.07),
  ('C#CC', 'solvation free energy, 298 K', -2.01),
  ('S', 'solvation free energy, 298 K', -1.7),
  ('Cc1ccccc1', 'solvation free energy, 298 K', -4.6),
  ('c1ccccc1', 'solvation free energy, 298 K', -4.07),
  ('C=CCCCCC', 'solvation free energy, 298 K', -3.24);

Record O=C=O . Reported solvation free energy, 298 K: -0.44

Record C=C . Reported solvation free energy, 298 K: -0.15

----------
Test Method Notes: solvent given as SMILES
Test Parameters: in CC(C)CC(C)O
Binary label based on solvation free energy, 298 K with cut-off -10 kcal/mol: below gives 1.0, not below gives 0.0.

INSERT INTO measurements (smiles_representation, assigned_label) VALUES
  ('c1ccc2c(c1)Cc1ccccc1O2', 0.0),
  ('c1cc2c3c(cccc3c1)CC2', 0.0);

Query: Would you kindly verify if solvation free energy, 298 K of O=C1c2ccccc2C(=O)c2c(Cl)cccc21 is strictly less than -10 kcal/mol?
Response: 1.0

Query: Would you kindly verify if solvation free energy, 298 K of c1ccc2c(c1)Nc1ccccc1S2 is strictly less than -10 kcal/mol?
Response: 1.0

Query: Would you kindly verify if solvation free energy, 298 K of c1ccc2c(c1)-c1cccc3cccc-2c13 is strictly less than -10 kcal/mol?
Response: 1.0

Query: Would you kindly verify if solvation free energy, 298 K of O=C(C(=O)c1ccccc1)c1ccccc1 is strictly less than -10 kcal/mol?
Response: 1.0

----------
Test Method Notes: solvent given as SMILES
Test Parameters: in CCCCCCCCCCCCCCCC
Outcome label depends on solvation free energy, 298 K relative to -4 kcal/mol: at/above gives label 1, below gives label 0.

Query: Is it the case that Fc1ccccc1 has solvation free energy, 298 K reaching or exceeding -4 kcal/mol?
Response: label 1

----------
The following compounds are shown together with reported solvation free energy, 298 K values.
Test Method Notes: solvent given as SMILES
Test Parameters: in C1COCCO1
Give your result in kcal/mol as a bare value.

INSERT INTO assay_data (compound, readout_label, val) VALUES
  ('CC(C)CC(C)C', 'solvation free energy, 298 K', -3.39);

Please find the next compound below.
Record FS(F)(F)(F)(F)F . Reported solvation free energy, 298 K: 0.52

----------
Test Method Notes: solvent given as SMILES
Test Parameters: in CCCCCCCCCCCCCC
Outcome label depends on solvation free energy, 298 K relative to -3 kcal/mol: at/above gives Satisfied, below gives Not satisfied.

Some entries whose results are on file:
INSERT INTO results (smiles_representation, assigned_label) VALUES
  ('C1CCCCC1', 'Not satisfied'),
  ('ClCCl', 'Satisfied'),
  ('FS(F)(F)(F)(F)F', 'Satisfied'),
  ('ClC(Cl)(Cl)Cl', 'Not satisfied'),
  ('ClCCCl', 'Not satisfied');

Now consider a different compound.
Query: Is it the case that O=O has solvation free energy, 298 K reaching or exceeding -3 kcal/mol?
Response: Satisfied
